# SYSTEM: C-X-C chemokine receptor type 4 (Homo sapiens, UniProt P61073)
# Sequence (P61073 whole entry): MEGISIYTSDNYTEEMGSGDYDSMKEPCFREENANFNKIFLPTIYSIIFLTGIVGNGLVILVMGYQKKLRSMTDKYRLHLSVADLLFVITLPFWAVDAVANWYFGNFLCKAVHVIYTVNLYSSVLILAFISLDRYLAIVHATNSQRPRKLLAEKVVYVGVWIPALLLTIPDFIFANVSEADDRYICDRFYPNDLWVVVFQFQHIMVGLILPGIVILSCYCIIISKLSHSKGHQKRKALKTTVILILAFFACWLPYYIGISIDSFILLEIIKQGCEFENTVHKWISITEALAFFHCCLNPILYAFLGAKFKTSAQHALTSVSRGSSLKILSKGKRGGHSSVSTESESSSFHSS
# EXPERIMENT NOTES: Inhibition of CXCR4 receptor (unknown origin)
Numbered stars: 1 amine (or outer) side, 2 acyl side, 3 side chain; on linkers, the order of the positions; unused ones are H or OH. Square brackets hold non-standard residues; d marks the D form. Peptide text beside a SMILES is read from it. dAla(N-(6-guanidinohexyl)) = C[C@@H](NCCCCCCNC(=N)N)C(=O)O; X1 = C[C@@H](C(=O)[*:2])N(CCCCCCN)[*:1]; X2 = C[C@H](C(=O)[*:2])N(CCCCCCN)[*:1]; 2Nal = N[C@@H](Cc1ccc2ccccc2c1)C(=O)O; X5 = C[C@H](C(=O)[*:2])N(CCCCCN)[*:1]
OBSERVABLE: IC50 (nM)

1) C[C@@H]1C(=O)N[C@@H](CCCNC(=N)N)C(=O)N[C@@H](Cc2ccc3ccccc3c2)C(=O)NCC(=O)N[C@H](Cc2ccc(O)cc2)C(=O)N1CCCCCN (cyclo([2Nal]G[dY][X5]R)) :: 1600
2) C[C@@H]1C(=O)N[C@@H](CCCNC(=N)N)C(=O)N[C@@H](Cc2ccc3ccccc3c2)C(=O)NCC(=O)N[C@H](Cc2ccc(O)cc2)C(=O)N1CCCCCCNC(=N)N (cyclo([dY][dAla(N-(6-guanidinohexyl))]R[2Nal]G)) :: 40

[1] C[C@@H]1C(=O)N[C@@H](CCCNC(=N)N)C(=O)N[C@@H](Cc2ccc3ccccc3c2)C(=O)NCC(=O)N[C@H](Cc2ccc(O)cc2)C(=O)N1CCCCCCN (cyclo([2Nal]G[dY][X2]R))
[2] C[C@H]1C(=O)N[C@@H](CCCNC(=N)N)C(=O)N[C@@H](Cc2ccc3ccccc3c2)C(=O)NCC(=O)N[C@H](Cc2ccc(O)cc2)C(=O)N1CCCCCCN (cyclo([2Nal]G[dY][X1]R))
Asked: Which of the two gives a bigger number for IC50: 1 or 2 ? When you have decided, please share the label of that item.
Given back: 2
